# assayed.target: BCRP (ABCG2) (Homo sapiens, UniProt Q9UNQ0)
# Construct: host or cells: MDCKII
# Sequence (Q9UNQ0 1-655): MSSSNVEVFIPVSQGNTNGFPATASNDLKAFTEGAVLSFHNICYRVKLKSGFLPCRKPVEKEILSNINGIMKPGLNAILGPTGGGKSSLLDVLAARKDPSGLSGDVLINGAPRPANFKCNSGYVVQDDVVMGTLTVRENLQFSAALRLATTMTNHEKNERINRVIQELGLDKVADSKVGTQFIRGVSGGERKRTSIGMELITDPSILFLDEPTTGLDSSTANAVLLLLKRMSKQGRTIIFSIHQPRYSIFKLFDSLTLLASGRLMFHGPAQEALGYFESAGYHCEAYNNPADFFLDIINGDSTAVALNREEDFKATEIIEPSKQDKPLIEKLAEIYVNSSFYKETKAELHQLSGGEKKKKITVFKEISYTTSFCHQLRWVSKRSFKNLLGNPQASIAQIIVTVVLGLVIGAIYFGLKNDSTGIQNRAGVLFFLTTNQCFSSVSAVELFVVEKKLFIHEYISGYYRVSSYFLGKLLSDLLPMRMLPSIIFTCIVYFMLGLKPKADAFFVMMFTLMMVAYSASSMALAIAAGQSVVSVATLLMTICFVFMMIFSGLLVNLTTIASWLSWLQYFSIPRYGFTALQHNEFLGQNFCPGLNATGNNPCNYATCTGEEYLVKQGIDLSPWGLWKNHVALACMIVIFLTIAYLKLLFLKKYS
# test.description: Transepithelial transport of rosuvastatin (±TCMCB07) in MDCKII/BCRP cells
# Assay type: in vitro ADME
# test.settings: human, pH 7.4; MDCKII/BCRP, rosuvastatin alone; table values multiplied ×10^6, cm/s
quantity: Papp A→B at 21 nM

{"smiles.str": "CC(C)c1nc(N(C)S(C)(=O)=O)nc(-c2ccc(F)cc2)c1/C=C/[C@@H](O)C[C@@H](O)CC(=O)O", "assayed.target": "BCRP (ABCG2) (Homo sapiens, UniProt Q9UNQ0)", "result": "110 nm/s"}
